Listing of recorded melting point by entry.

COMPOUND: Oc1cccc(OCCCC(O)(O)C(F)(F)F)c1
melting point: 76 to 77 °C
//
COMPOUND: CC(C)c1nc2c(c(-c3ccc(F)cc3)c1C(C)O)CCC2(C)C (stereo not drawn)
melting point: 90 to 92 °C
//
COMPOUND: COC(=O)C1=C(C)NC(C)=C(C(=O)OCCCCCCOc2cc(-c3ccc4c(c3)OCO4)[nH]n2)C1c1cccc([N+](=O)[O-])c1 (stereo not drawn)
melting point: 167 to 169 °C
//
COMPOUND: CN1C(=O)CN=C(c2ccccc2F)c2cc(NC(=O)NCCO)ccc21
melting point: 156 to 160 °C
//
COMPOUND: CCn1cc(-c2c(-c3ccc(F)cc3)nn3ccncc23)ccc1=O
melting point: 165 to 166 °C
//
COMPOUND: CC(C)OC(=O)c1cc(-n2c(=O)[nH]c3c(c2=O)CCC3)c(Br)cc1Br
melting point: 223 to 226 °C
//
COMPOUND: CN1C(=O)C(CC(O)C#N)c2ccccc21 (stereo not drawn)
melting point: 136 to 138 °C
//
COMPOUND: CC(C)COc1ccc(COc2ccc(CC(=O)O)cc2Cl)cc1Cl
melting point: 128 to 129 °C
//
COMPOUND: CON1CCC(C#N)(N(O)C(=O)Cc2cc(C)ccc2C)CC1
melting point: 153 to 156 °C
//
COMPOUND: CC(=O)N1CCN(CCCOc2ccc(NC(=O)c3cc(F)cc(N4CCCCC4)c3)c3ccccc23)CC1
melting point: 210 to 211 °C
//
COMPOUND: CC(C)[C@H](NC1CCCCC1)C(=O)O
melting point: > 300 °C
//
COMPOUND: O=C(N[C@@H](Cc1ccccc1)C(=O)NC(O)C(=O)O)OCc1ccccc1 (stereo partly drawn)
melting point: 117 to 127 °C
//
COMPOUND: CCn1c(C)c(C(=O)c2ccccc2C(=O)O)c2ccccc21
melting point: 184 to 185 °C
//
COMPOUND: CC1(C)CC(OC(=O)CCCCCCCCC(=O)OC2CC(C)(C)N(OCc3ccccc3)C(C)(C)C2)CC(C)(C)N1OCc1ccccc1
melting point: 58 to 61 °C
//
COMPOUND: CCCCc1nnc2ccccc2c1Cl
melting point: 50 °C
//
COMPOUND: CCOC(=O)CCc1c(C)nc(SCc2ccc(OC)cc2)n1C
melting point: 63 °C
//
COMPOUND: CC=CC(=O)Nc1c(C(O)(C(F)(F)F)C(F)(F)F)ccc2ccccc12
melting point: 216 to 217 °C
//
COMPOUND: CCOc1ccc(-c2c(Cl)c(CN3C(=O)CCC3=O)nc3sc4c(c23)CCN(C(C)=O)C4)cc1
melting point: 260 to 262 °C
//
COMPOUND: O=S(=O)(Cc1ccccc1)n1c2cc(O)c(O)cc2c2ccc(O)c(O)c21
melting point: 216 to 218 °C
//
COMPOUND: CS(=O)(=O)c1ccc(-c2cnn(Cc3ccc(F)cc3F)c(=O)c2-c2ccc(F)cc2)cc1
melting point: 179 to 182 °C
//
COMPOUND: Cc1ccc(O)c(F)n1
melting point: 133 to 135 °C
//
COMPOUND: NC(=O)c1cc(-c2ccc(OC(F)(F)F)cc2)c2c3c(ccc2c1)OCO3
melting point: 188 to 190 °C
//
COMPOUND: c1cnc2c(c1)ncn2CCCCc1nnnn1C1CCCCC1
melting point: 94 to 95 °C

Values compiled from a melting point compilation (Tetko et al.; mined from patent text by program, amines drawn as free bases though some values may be those of a salt).
